Response field label takes MET when log10 vapour pressure (mmHg) is strictly below -3 and NOT MET in all other cases.

QUERY: Does the reported log10 vapour pressure (mmHg) of the following compound sit strictly below -3? `Clc1ccccn1`
RESULT: NOT MET

QUERY: Does the reported log10 vapour pressure (mmHg) of the following compound sit strictly below -3? `Clc1cc(Cl)c(Cl)c(Oc2ccccc2)c1`
RESULT: MET

QUERY: Does the reported log10 vapour pressure (mmHg) of the following compound sit strictly below -3? `O=CNNC=O`
RESULT: MET

QUERY: Does the reported log10 vapour pressure (mmHg) of the following compound sit strictly below -3? `Clc1ccc(Oc2ccc(Cl)cc2)cc1`
RESULT: MET

QUERY: Does the reported log10 vapour pressure (mmHg) of the following compound sit strictly below -3? `COc1nc(C)nc(NC(=O)NS(=O)(=O)c2ccccc2Cl)n1`
RESULT: MET

QUERY: Does the reported log10 vapour pressure (mmHg) of the following compound sit strictly below -3? `C=Cc1ccncc1`
RESULT: NOT MET

QUERY: Does the reported log10 vapour pressure (mmHg) of the following compound sit strictly below -3? `CCC=CC(C)C`
RESULT: NOT MET

QUERY: Does the reported log10 vapour pressure (mmHg) of the following compound sit strictly below -3? `Cc1cccc([N+](=O)[O-])c1`
RESULT: NOT MET

QUERY: Does the reported log10 vapour pressure (mmHg) of the following compound sit strictly below -3? `CCOC(=O)CCN(SN(C)C(=O)Oc1cccc2c1OC(C)(C)C2)C(C)C`
RESULT: MET

QUERY: Does the reported log10 vapour pressure (mmHg) of the following compound sit strictly below -3? `CC1(C)CCCCC1`
RESULT: NOT MET

QUERY: Does the reported log10 vapour pressure (mmHg) of the following compound sit strictly below -3? `CCCCC(=O)O`
RESULT: NOT MET

QUERY: Does the reported log10 vapour pressure (mmHg) of the following compound sit strictly below -3? `CON=C(Cc1cccnc1)c1ccc(Cl)cc1Cl`
RESULT: MET

QUERY: Does the reported log10 vapour pressure (mmHg) of the following compound sit strictly below -3? `CCC(O)CC`
RESULT: NOT MET

QUERY: Does the reported log10 vapour pressure (mmHg) of the following compound sit strictly below -3? `SCCS`
RESULT: NOT MET

QUERY: Does the reported log10 vapour pressure (mmHg) of the following compound sit strictly below -3? `CC(C)CNCC(C)C`
RESULT: NOT MET

QUERY: Does the reported log10 vapour pressure (mmHg) of the following compound sit strictly below -3? `CCCCCCCCCCC(=O)OCC`
RESULT: NOT MET

QUERY: Does the reported log10 vapour pressure (mmHg) of the following compound sit strictly below -3? `Fc1ccccc1`
RESULT: NOT MET

QUERY: Does the reported log10 vapour pressure (mmHg) of the following compound sit strictly below -3? `c1ccc(-c2ccccc2-c2ccccc2)cc1`
RESULT: MET

QUERY: Does the reported log10 vapour pressure (mmHg) of the following compound sit strictly below -3? `Clc1c(Cl)c(Cl)c2c(oc3c(Cl)c(Cl)c(Cl)c(Cl)c32)c1Cl`
RESULT: MET

QUERY: Does the reported log10 vapour pressure (mmHg) of the following compound sit strictly below -3? `CC(C)C#N`
RESULT: NOT MET

QUERY: Does the reported log10 vapour pressure (mmHg) of the following compound sit strictly below -3? `CCCCCCC(=O)O`
RESULT: NOT MET

QUERY: Does the reported log10 vapour pressure (mmHg) of the following compound sit strictly below -3? `CC(C)C(O)C(C)C`
RESULT: NOT MET

QUERY: Does the reported log10 vapour pressure (mmHg) of the following compound sit strictly below -3? `CN1CSC(=S)N(C)C1`
RESULT: MET

QUERY: Does the reported log10 vapour pressure (mmHg) of the following compound sit strictly below -3? `CCCCCCCCCCCCCCCCCCCCCCCCCCCCCCCCC`
RESULT: MET

QUERY: Does the reported log10 vapour pressure (mmHg) of the following compound sit strictly below -3? `COP(=O)(OC)O/C(=C\Cl)c1ccc(Cl)cc1Cl`
RESULT: MET

QUERY: Does the reported log10 vapour pressure (mmHg) of the following compound sit strictly below -3? `CCCOC(=O)C(C)C`
RESULT: NOT MET

QUERY: Does the reported log10 vapour pressure (mmHg) of the following compound sit strictly below -3? C=CC(C)(O)CCC=C(C)C (configuration not stated)
RESULT: NOT MET

QUERY: Does the reported log10 vapour pressure (mmHg) of the following compound sit strictly below -3? CC(Cl)CO (configuration not stated)
RESULT: NOT MET

QUERY: Does the reported log10 vapour pressure (mmHg) of the following compound sit strictly below -3? `O=C=O`
RESULT: NOT MET

QUERY: Does the reported log10 vapour pressure (mmHg) of the following compound sit strictly below -3? `CCc1ccccc1`
RESULT: NOT MET

QUERY: Does the reported log10 vapour pressure (mmHg) of the following compound sit strictly below -3? `COC(=O)CSc1cc(/N=c2\sc(=O)n3n2CCCC3)c(F)cc1Cl`
RESULT: MET

QUERY: Does the reported log10 vapour pressure (mmHg) of the following compound sit strictly below -3? CC(C)[C@H](C(=O)OC(C#N)c1cccc(Oc2ccccc2)c1)c1ccc(OC(F)F)cc1 (some centres not stated)
RESULT: MET

QUERY: Does the reported log10 vapour pressure (mmHg) of the following compound sit strictly below -3? `CCc1cc(C)cc(O)c1`
RESULT: NOT MET

QUERY: Does the reported log10 vapour pressure (mmHg) of the following compound sit strictly below -3? `CC(F)(F)F`
RESULT: NOT MET

QUERY: Does the reported log10 vapour pressure (mmHg) of the following compound sit strictly below -3? `CCC[C@](C)(O)CC`
RESULT: NOT MET

QUERY: Does the reported log10 vapour pressure (mmHg) of the following compound sit strictly below -3? `Cc1ccc([N+](=O)[O-])c(C)c1`
RESULT: NOT MET

QUERY: Does the reported log10 vapour pressure (mmHg) of the following compound sit strictly below -3? `Cc1cc(C)nc(C)c1`
RESULT: NOT MET

QUERY: Does the reported log10 vapour pressure (mmHg) of the following compound sit strictly below -3? `CCc1ccc(C)cc1`
RESULT: NOT MET

QUERY: Does the reported log10 vapour pressure (mmHg) of the following compound sit strictly below -3? `C1=CCCCC1`
RESULT: NOT MET

QUERY: Does the reported log10 vapour pressure (mmHg) of the following compound sit strictly below -3? `CC(C)(O)C#N`
RESULT: NOT MET

QUERY: Does the reported log10 vapour pressure (mmHg) of the following compound sit strictly below -3? `Clc1cc(Cl)c2c(c1)Oc1cc(Cl)c(Cl)cc1O2`
RESULT: MET

QUERY: Does the reported log10 vapour pressure (mmHg) of the following compound sit strictly below -3? `CCC(=O)c1ccc(C)cc1`
RESULT: NOT MET

QUERY: Does the reported log10 vapour pressure (mmHg) of the following compound sit strictly below -3? `NC(=O)C(=O)O`
RESULT: MET

QUERY: Does the reported log10 vapour pressure (mmHg) of the following compound sit strictly below -3? `Sc1ccccc1`
RESULT: NOT MET

QUERY: Does the reported log10 vapour pressure (mmHg) of the following compound sit strictly below -3? `C=CC(Cl)Cl`
RESULT: NOT MET

QUERY: Does the reported log10 vapour pressure (mmHg) of the following compound sit strictly below -3? `c1ccc2c(c1)c1cccc3ccc4cccc2c4c31`
RESULT: MET

QUERY: Does the reported log10 vapour pressure (mmHg) of the following compound sit strictly below -3? `Cc1ccccc1[N+](=O)[O-]`
RESULT: NOT MET

QUERY: Does the reported log10 vapour pressure (mmHg) of the following compound sit strictly below -3? `CCCCCCCCCCCCCCO`
RESULT: MET

QUERY: Does the reported log10 vapour pressure (mmHg) of the following compound sit strictly below -3? `CCCCc1ccccc1O`
RESULT: NOT MET

QUERY: Does the reported log10 vapour pressure (mmHg) of the following compound sit strictly below -3? `Clc1ccc(-c2cc(Cl)c(Cl)cc2Cl)cc1Cl`
RESULT: MET

QUERY: Does the reported log10 vapour pressure (mmHg) of the following compound sit strictly below -3? `CCC(C)=C(C)C`
RESULT: NOT MET

QUERY: Does the reported log10 vapour pressure (mmHg) of the following compound sit strictly below -3? `COc1ccccc1OC`
RESULT: NOT MET

QUERY: Does the reported log10 vapour pressure (mmHg) of the following compound sit strictly below -3? `CCCCCCCCC(C)C`
RESULT: NOT MET

QUERY: Does the reported log10 vapour pressure (mmHg) of the following compound sit strictly below -3? `c1ccc2c(c1)ccc1c3ccccc3sc21`
RESULT: MET

QUERY: Does the reported log10 vapour pressure (mmHg) of the following compound sit strictly below -3? `CC(C)c1ccccc1C(=O)O`
RESULT: MET

QUERY: Does the reported log10 vapour pressure (mmHg) of the following compound sit strictly below -3? FC(Cl)C(F)(F)C(F)(F)Cl (configuration not stated)
RESULT: NOT MET

QUERY: Does the reported log10 vapour pressure (mmHg) of the following compound sit strictly below -3? `Cc1cc(C(C)(C)C)ccc1O`
RESULT: NOT MET

QUERY: Does the reported log10 vapour pressure (mmHg) of the following compound sit strictly below -3? `CC(=O)Br`
RESULT: NOT MET

QUERY: Does the reported log10 vapour pressure (mmHg) of the following compound sit strictly below -3? `O=C(O)c1ccccc1`
RESULT: MET

QUERY: Does the reported log10 vapour pressure (mmHg) of the following compound sit strictly below -3? CCOP(=S)(Oc1ccc([N+](=O)[O-])cc1)c1ccccc1 (configuration not stated)
RESULT: MET

QUERY: Does the reported log10 vapour pressure (mmHg) of the following compound sit strictly below -3? COCC(F)(F)C(F)C(F)(F)F (configuration not stated)
RESULT: NOT MET
